target: Adenosine A2 receptor (Rattus norvegicus, UniProt P29276+P30543); experiment: Binding affinity for adenosine A2 receptor using [3H]NECA in rat striatal membrane; type: cell membranes, Striatum
observation_type: Ki (nM)

Use these answered entries as a reference point.
>>> print(df.to_string())
                                  structure  observation_type  unit_name   val
0  c1ccc2c3nc(C4CCCC4)nc-3c(NC3CCCC3)[nH]c2c1                Ki         nM   450
1  C[C@@H](Cc1ccccc1)Nc1[nH]c2ccccc2c2ncnc1-2                Ki         nM  2800
2       Nc1[nH]c2ccccc2c2nc(-c3ccccc3)nc1-2                Ki         nM   290

P: C[C@H](Cc1ccccc1)Nc1[nH]c2ccccc2c2ncnc1-2
Q: c1ccc2c3ncnc-3c(NC3CCCC3)[nH]c2c1
Q: Please indicate which entry, P or Q , has the lower recorded Ki value. Lab log: write the label of the selected item as the result.
Result: Q

1: Nc1[nH]c2ccccc2c2nc(C3CCCC3)nc1-2
2: c1ccc(-c2nc3c(NC4CCCC4)[nH]c4ccccc4c-3n2)cc1
Q: Lower Ki: 1 or 2 ? To answer, give the label that identifies your chosen option.
Result: 2
(2: 450 nM, 1: 740 nM)

# credit: ChEMBL document CHEMBL1125633
